Data origin: patent US20230183322A1

Molecular target: S protein of the novel coronavirus SARS-CoV-2 (SARS-CoV-2, UniProt P0DTC2 14-1273)
Assay: cell-based or functional assay
Endpoint Name: IC50 for neutralizing SARS-CoV-2 pseudovirus (Huh-7 cells, luciferase)

Binder	Result
ABU-358 (antibody, V domains shown) VH: EVQLVESGGGLIQPGGSLRLSCAASGLTVSSNYMNWVRQAPGKGLEWVSVIYSGGSTYYADSVKGRFTISRDNSKNMVYLQMNSLRAEDTAVYYCARDLVVYGMDVWGQGTTVIVSS VL: DIQLTQSPSSLSASVGDRVTITCRASQGISSYLAWYQQKPGKAPKLLIYAASTLQSGVPSRFSGSGSGTDFTLTISSLQPEDVATYYCQQLNSNPPITFGPGTKVDIK	< 0.1 µg/mL
ABU-208 (antibody, V domains shown) VH: QVQLVESGGGVVQPGRSLRLSCVASGFTFSNYDMHWVRQAPGKGLEWVTVISSDGNNRRYADSVKGRFTISRDNSKNMLYLQMNSLKAEDTAVYYCARDEVIAVATGEGMDVWGQGTTVTVSP VL: EIVMTQSPAILSVSPGERATLSCRASQSVTRNLAWYQQKPGQAPRLLIYGASTRATNIPARFSGSGFGTEFTLIISSLQSEDFAVYYCQQYSNWPLYTFGQGTKLEIK	< 0.5 µg/mL
ABU-341 (antibody, V domains shown) VH: QVQLQESGPGLVKPSQTLSLTCTVSAGSISSDTYYWSWIRQPAGKGLEWIGRIYTTGSTIYNPSLNSRVLISADTSNNQFSLKLTSVTASDTAVYYCAAHYYSRTDAFHIWGQGTMVTVSS VL: DIQMTQSPSSLSASVGDRVTITCRASQSIAKFLNWYQKKPGKAPNLLISTASSFQSGVPSRFSGSGSGTDYTLTISGLQPEDFATYYCQQSYSSPYTFGQGTNLEIK	< 0.1 µg/mL
ABU-308 (antibody, V domains shown) VH: QVQLVQSGAEVKKPGSSVKVSCKASGGTFSSYAISWVRQAPGQGLEWMGGIIPIFGTANYAHKFQGRVTITADESTSTAYMELSSLRSEDTAVYYCATRRGYSGYGAAYYFDYWGQGTLVTVSS VL: QSVLTQPPSVSGAPGQRVTISCTGSSSNIGAGYDVHWYQQLPGTAPKLLIYGNSNRPSGVPDRFSGSKSGTSASLAITGLQAEDEADYYCQSYDSSLSGSLFGGGTKLTVL	< 0.5 µg/mL
ABU-369 (antibody, V domains shown) VH: EVQLVESGGGLIQPGGSLRLSCAASGLTVSSNYMSWVRQAPGKGLEWVSVIYSGGSTFYADSVKGRFTISRDNSKNTLYLQMNSLRAEDTAVYYCARDLYYYGMDVWGQGTTVTVSS VL: AIQLTQSPSSLSASVGDRVTITCRASQGISSYLAWYQQKPGKAPKLLIFAASTLQSGVPSRFSGSGSGTDFTLTISSLQPEDFATYYCQQLDSYPLFGGGTKVEIK	< 0.1 µg/mL
